All values here come from ChEMBL document CHEMBL4229451.

Each entry below lists one item and its recorded Kdiss value.
- system: Estrogen receptor (Homo sapiens) (UniProt P03372)
- Sequence (P03372 whole entry, the tested form may be a part): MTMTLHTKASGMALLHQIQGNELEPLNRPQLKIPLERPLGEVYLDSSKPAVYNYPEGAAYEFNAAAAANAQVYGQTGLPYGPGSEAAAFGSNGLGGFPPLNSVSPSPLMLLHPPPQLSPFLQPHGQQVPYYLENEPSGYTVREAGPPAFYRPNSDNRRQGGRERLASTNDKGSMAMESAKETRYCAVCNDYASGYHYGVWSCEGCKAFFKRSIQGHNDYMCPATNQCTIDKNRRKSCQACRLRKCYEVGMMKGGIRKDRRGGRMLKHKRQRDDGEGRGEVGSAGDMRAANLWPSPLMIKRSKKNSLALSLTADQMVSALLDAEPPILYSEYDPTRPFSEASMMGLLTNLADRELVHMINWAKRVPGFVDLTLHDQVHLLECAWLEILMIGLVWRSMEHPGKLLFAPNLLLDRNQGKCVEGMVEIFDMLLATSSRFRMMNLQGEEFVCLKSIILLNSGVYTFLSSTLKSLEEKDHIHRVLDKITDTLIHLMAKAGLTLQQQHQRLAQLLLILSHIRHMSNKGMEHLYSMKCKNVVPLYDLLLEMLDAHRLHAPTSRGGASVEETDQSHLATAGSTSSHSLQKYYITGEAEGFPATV
- assay.explanation: Binding affinity to recombinant human ERalpha LBD (301 to 553 residues) expressed in Escherichia coli BL21(DE3) by surface plasmon resonance method
Positions of bridges follow the written chain, without caps; N, C: chain ends. Non-standard residues stand in square brackets, D forms with d. Residues, ends and D or L forms follow the SMILES beside them. S5 = C=CCCC[C@](C)(N)C(=O)O
Quick note: give the figure in s⁻¹, leave out the unit.

Some solved entries appear below for comparison.
CC[C@H](C)[C@@H]1NC(=O)[C@@](C)(NC(=O)[C@H](Cc2cnc[nH]2)NC(C)=O)CCC/C=C\CCC[C@@](C)(C(=O)N[C@@H](CC(C)C)C(=O)N[C@@H](CC(C)C)C(=O)N[C@@H](CCC(N)=O)C(=O)N[C@@H](CC(=O)O)C(=O)N[C@@H](CO)C(N)=O)NC(=O)[C@H](Cc2cnc[nH]2)NC(=O)[C@H](CC(C)C)NC1=O (Ac-H[S5]ILH[S5]LLQDS-NH2; staple (Z) 2-6); 0.256
CC[C@H](C)[C@H](NC(=O)[C@H](CCCCN)NC(=O)[C@H](Cc1cnc[nH]1)NC(=O)[C@H](CCCCN)NC(=O)[C@H](CCC(=O)O)NC(C)=O)C(=O)N[C@@H](CC(C)C)C(=O)N[C@@]1(C)CCC/C=C\CCC[C@@](C)(C(=O)N[C@@H](CC(=O)O)C(=O)N[C@@H](CO)C(N)=O)NC(=O)[C@H](CC(C)C)NC(=O)[C@H](CC(C)C)NC(=O)[C@H](CCCNC(=N)N)NC1=O (Ac-EKHKIL[S5]RLL[S5]DS-NH2; staple (Z) 7-11); 0.129
CC[C@H](C)[C@H](NC(=O)[C@H](CCCCN)NC(=O)[C@H](Cc1cnc[nH]1)NC(C)=O)C(=O)N[C@@H](CC(C)C)C(=O)N[C@@H](Cc1cnc[nH]1)C(=O)N[C@@H](CCCNC(=N)N)C(=O)N[C@@H](CC(C)C)C(=O)N[C@@H](CC(C)C)C(=O)N[C@@H](CCC(N)=O)C(=O)N[C@@H](CC(=O)O)C(=O)N[C@@H](CO)C(N)=O (Ac-HKILHRLLQDS-NH2); 0.347

Next item in the queue.
Request: Lab note: need Kdiss for CC(=O)N[C@@H](Cc1cnc[nH]1)C(=O)N[C@@H](CCCCN)C(=O)N[C@@]1(C)CCC/C=C\CCC[C@@](C)(C(=O)N[C@@H](CC(C)C)C(=O)N[C@@H](CCC(N)=O)C(=O)N[C@@H](CC(=O)O)C(=O)N[C@@H](CO)C(N)=O)NC(=O)[C@H](CCC(N)=O)NC(=O)[C@H](Cc2cnc[nH]2)NC(=O)[C@H](CC(C)C)NC1=O (Ac-HK[S5]LHQ[S5]LQDS-NH2; staple (Z) 3-7) on Estrogen receptor (Homo sapiens) (UniProt P03372), anyone have it?
Response: 0.193

----------
- system: Estrogen receptor beta (Homo sapiens, UniProt Q92731, C334S/C369S/C481S)
- Sequence (Q92731 whole entry C334S/C369S/C481S, the tested form may be a part): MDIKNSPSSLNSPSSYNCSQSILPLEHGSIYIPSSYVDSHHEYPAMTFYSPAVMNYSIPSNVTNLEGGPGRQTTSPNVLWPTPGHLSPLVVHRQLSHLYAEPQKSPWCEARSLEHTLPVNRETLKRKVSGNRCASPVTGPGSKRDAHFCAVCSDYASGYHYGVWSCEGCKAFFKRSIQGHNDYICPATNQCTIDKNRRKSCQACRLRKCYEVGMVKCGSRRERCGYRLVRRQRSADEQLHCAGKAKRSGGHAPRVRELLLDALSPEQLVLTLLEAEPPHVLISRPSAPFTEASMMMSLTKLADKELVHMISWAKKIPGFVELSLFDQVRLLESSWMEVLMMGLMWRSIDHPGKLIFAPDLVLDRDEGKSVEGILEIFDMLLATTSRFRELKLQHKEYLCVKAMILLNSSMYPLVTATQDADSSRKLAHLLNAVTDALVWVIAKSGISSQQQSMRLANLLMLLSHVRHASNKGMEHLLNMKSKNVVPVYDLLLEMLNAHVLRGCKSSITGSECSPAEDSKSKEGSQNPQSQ
- assay.explanation: Binding affinity to recombinant human ERbeta LBD (259 to 498 residues) C334S/C369S/C481S triple mutant expressed in Escherichia coli BL21(DE3) by surface plasmon resonance method
Positions of bridges follow the written chain, without caps; N, C: chain ends. Non-standard residues stand in square brackets, D forms with d. Residues, ends and D or L forms follow the SMILES beside them. S5 = C=CCCC[C@](C)(N)C(=O)O
Each entry below lists one item and its recorded Kd value.
Quick note: give the figure in nM, leave out the unit.

Some solved entries appear below for comparison.
CC[C@H](C)[C@H](NC(=O)[C@H](CCCCN)NC(=O)[C@H](Cc1cnc[nH]1)NC(=O)[C@H](CCCCN)NC(=O)[C@H](CCC(=O)O)NC(C)=O)C(=O)N[C@@H](CC(C)C)C(=O)N[C@@]1(C)CCC/C=C\CCC[C@@](C)(C(=O)N[C@@H](CC(=O)O)C(=O)N[C@@H](CO)C(N)=O)NC(=O)[C@H](CC(C)C)NC(=O)[C@H](CC(C)C)NC(=O)[C@H](CCCNC(=N)N)NC1=O (Ac-EKHKIL[S5]RLL[S5]DS-NH2; staple (Z) 7-11); 155
CC(=O)N[C@@H](Cc1cnc[nH]1)C(=O)N[C@@H](CCCCN)C(=O)N[C@@]1(C)CCC/C=C\CCC[C@@](C)(C(=O)N[C@@H](CC(C)C)C(=O)N[C@@H](CCC(N)=O)C(=O)N[C@@H](CC(=O)O)C(=O)N[C@@H](CO)C(N)=O)NC(=O)[C@H](CCC(N)=O)NC(=O)[C@H](Cc2cnc[nH]2)NC(=O)[C@H](CC(C)C)NC1=O (Ac-HK[S5]LHQ[S5]LQDS-NH2; staple (Z) 3-7); 632

Next item in the queue.
Request: # input molecule: CC[C@H](C)[C@@H]1NC(=O)[C@@](C)(NC(=O)[C@H](Cc2cnc[nH]2)NC(C)=O)CCC/C=C\CCC[C@@](C)(C(=O)N[C@@H](CC(C)C)C(=O)N[C@@H](CC(C)C)C(=O)N[C@@H](CCC(N)=O)C(=O)N[C@@H](CC(=O)O)C(=O)N[C@@H](CO)C(N)=O)NC(=O)[C@H](Cc2cnc[nH]2)NC(=O)[C@H](CC(C)C)NC1=O (Ac-H[S5]ILH[S5]LLQDS-NH2; staple (Z) 2-6) ; wanted: its Kd
Response: 1990
